System: transactivating tegument protein VP16 (Human herpesvirus 1), Gal4-VP16 luciferase reporter
Test: VP16 transactivation inhibitors, counter-screen for SRC3 inhibitor project, cell-based, luminescence, high throughput (AID 588794)
Settings: mammalian cells, VP16-driven luciferase reporter luminescence; at 3.6 µM; stronger effect = higher value
VALUE TYPE: inhibition (%)

COMPOUND	UNIT SYMBOL	TEST VALUE
c1ccc(-c2cc(-c3ccccc3)[n+](-c3ccccc3)c(-c3ccccc3)c2)cc1	%	75.9
C[C@@H]1O[C@@H](O[C@@H]2C=C3CCC4C(CC[C@]5(C)[C@@H](c6ccc(=O)oc6)CC[C@]45O)[C@@]3(C)CC2)[C@H](O)[C@H](O)[C@H]1O (some centres not stated)	%	90.9
O=c1[nH]c2ccccc2n1C1CCN(C(c2cc3ccccc3o2)c2nnnn2Cc2ccccc2)CC1 (configuration not stated)	%	9.7
CCn1nc(/C=C/c2ccccc2)nc2c(=O)n(C)c(=O)nc1-2	%	9.67
N#CC1c2ccccc2-n2nncc2CN1Cc1cc(Cl)cc(Cl)c1 (configuration not stated)	%	84.7
CN(C)c1ccc(-[n+]2c(-c3ccccc3)cc(-c3ccccc3)cc2-c2ccccc2)cc1	%	86.2
C[C@H]1C[C@@H](C)C(=O)[C@@H]([C@H](O)CC2CC(=O)NC(=O)C2)C1	%	92.3

###

Test system: transactivating tegument protein VP16 (Human herpesvirus 1), Gal4-VP16 luciferase reporter
Assay: VP16 transactivation inhibitors, counter-screen for SRC3 inhibitor project, cell-based, luminescence, high throughput (AID 588794)
Conditions: mammalian cells, VP16-driven luciferase reporter luminescence; at 3.6 µM; stronger effect = higher value

MOLECULE	UNIT SYMBOL	inhibition
CC1CCC/C=C/C2CC(O)CC2C(O)/C=C/C(=O)O1 (centres undefined)	%	75
Cc1ccc(-c2cc(-c3ccccc3)cc(-c3ccccc3)[n+]2-c2ccccc2)cc1	%	89.9
CCCCCCCCCCCCn1ccc(=N)cc1	%	78.8
O=c1[nH]c2ccccc2n1C1CCN(C(c2nnnn2Cc2ccccc2)C2CC2)CC1 (centres undefined)	%	20.9
COc1ccc(CN2Cc3cnnn3-c3ccccc3C2C#N)cc1 (centres undefined)	%	56.2
CCOc1ccc(-c2cc(C)[n+](CCc3ccc(OC)c(OC)c3)c(-c3ccc(OCC)cc3)c2)cc1	%	69.7
O=C1CN=C(c2ccc[nH]2)c2cc(Cl)ccc2N1	%	57.9
O=C1NC2C(=CC(O)C(O)C2O)c2cc3c(c(O)c21)OCO3 (centres undefined)	%	96.1
C=C1C(=O)O[C@@H]2C[C@@H](C)[C@@H]3C=CC(=O)[C@@]3(C)[C@@H](OC(=O)CC(=O)O[C@H]3[C@@H]4C(=C)C(=O)O[C@@H]4C[C@@H](C)[C@@H]4C=CC(=O)[C@]43C)[C@H]12	%	96
CC(=NCc1ccc2c(c1)OCO2)c1c(O)n(-c2ccccc2)c(=O)[nH]c1=O	%	13.8
Cc1c(C(=O)N2CCC3(CC2)OCCO3)sc2ncnc(N3CCN(c4ccccn4)CC3)c12	%	-13.2
C[C@H]1[C@@H](OS(=O)(=O)O)C[C@@H]2C[C@H]([C@@H](O)c3cc(=O)[nH]c(=O)[nH]3)NC3=NC[C@H]1N32	%	71
CC1C(OC(=O)CCC(=O)NC(C)(C)CO)O[C@H]2OC3(C)CC[C@H]4[C@H](C)CCC1C24OO3 (some centres undefined)	%	79.9
CC[n+]1c(/C=C/N(C)c2ccccc2)sc2ccc(Cl)cc21	%	46.1
CCN1CCN(c2ncnc3ccc(Br)cc23)CC1	%	54.3
CN(C)c1ccc(/C=C/C=C/c2sc3ccccc3[n+]2C)cc1	%	38.5
Cc1ccc(-c2cc(-c3ccc(C)cc3)[n+](-c3ccccc3)c(-c3ccc(C)cc3)c2)cc1	%	82.6
CC1=CC2/C=C(\C)CCC(O)C(O)/C=C/C(=O)C23C(=O)NC(CC(C)C)C3C1C (centres undefined)	%	54.8
COC(=O)[C@@H]1[C@@H](C(=O)OC)C2(c3ccccc3-c3ccccc32)N(c2ccc(Cl)cc2)N1C#N	%	30.6
C/C(=N\Nc1ccccc1)c1c(O)[nH]c(=O)[nH]c1=O	%	17.7
CN1CCN(c2ccc([N+](=O)[O-])c3no[n+]([O-])c23)CC1	%	96.4
COC1C(O)C(C)OC(OC2CCC3(C=O)C(CCC4C3CCC3(C)C(C5=CC(=O)OC5)CCC43O)C2)C1O (centres undefined)	%	89.2
CC1CC(C)CC(C)C(O)C(C#N)=CC=CCC(C2CCCC2C(=O)O)OC(=O)CC(O)C(C)C1 (centres undefined)	%	95.6
O=C1C(=O)c2ccccc2-c2ccccc21	%	95.2

Cited source: PubChem BioAssay
